Origin of values: patent US10851073B2

Target: His tagged full-length PTPN1 protein (Homo sapiens, UniProt P18031)
Sequence (P18031 with tags, fused parts or gaps): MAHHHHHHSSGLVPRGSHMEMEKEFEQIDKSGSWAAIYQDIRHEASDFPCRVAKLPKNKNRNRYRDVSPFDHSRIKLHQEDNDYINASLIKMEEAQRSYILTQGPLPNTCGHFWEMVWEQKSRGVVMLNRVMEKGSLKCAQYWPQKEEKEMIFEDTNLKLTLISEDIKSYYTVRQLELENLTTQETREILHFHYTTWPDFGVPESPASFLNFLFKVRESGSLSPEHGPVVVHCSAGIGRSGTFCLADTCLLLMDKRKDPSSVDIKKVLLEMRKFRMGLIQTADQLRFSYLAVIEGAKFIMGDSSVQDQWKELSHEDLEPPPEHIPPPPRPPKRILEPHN
Property: IC50; scope: individual compounds

# example entries with known answers
>>> reported("O=C1CN(c2c(O)cc3c(c2F)CC(NCC(O)CC(F)(F)F)CC3)S(=O)(=O)N1 (stereo not shown)")
"1 to 10 nM"
>>> reported("CC(C)(O)CCOC1CCc2c(cc(O)c(N3CC(=O)NS3(=O)=O)c2F)C1 (stereo not shown)")
"10 to 100 nM"
>>> reported("O=C1CN(c2c(O)cc3c(c2F)C[C@@H]([C@H]2CCN(S(=O)(=O)C4CC4)C2)CC3)S(=O)(=O)N1 (single isomer, unassigned)")
"10 to 100 nM"

As a next step, examine the compound that follows.
Request: Determine from records and report IC50 for O=C1CN(c2c(O)cc3c(c2F)CC(NCCC(F)(F)F)CC3)S(=O)(=O)N1 (stereo not shown)
Response: 10 to 100 nM
